- Test system: Bacillus cereus
- Assay protocol: Antimicrobial activity against Bacillus cereus after 24 hrs by microdilution technique
- Type: functional
Flag rule - MIC less than 200 µM flags yes (1); the remaining entries get no (0).

Example entries begin here.
Molecule | Discrete label
N#Cc1c(-c2ccc([N+](=O)[O-])cc2)cc(-c2ccc(Nc3nc(Nc4ccccc4)nc(Nc4ccccc4)n3)cc2)nc1N | yes (1)
CC(=O)N1N=C(c2ccc(Nc3nc(Nc4ccccc4)nc(Nc4ccccc4)n3)cc2)CC1c1ccc(Cl)cc1 (stereo unspecified) | no (0)
COc1ccccc1/C=C/C(=O)c1ccc(Nc2nc(Nc3ccccc3)nc(Nc3ccccc3)n2)cc1 | yes (1)
Nc1nc(-c2ccc(Nc3nc(Nc4ccccc4)nc(Nc4ccccc4)n3)cc2)cc(-c2cccs2)n1 | yes (1)
O=C(/C=C/c1ccc([N+](=O)[O-])cc1)c1ccc(Nc2nc(Nc3ccccc3)nc(Nc3ccccc3)n2)cc1 | yes (1)

# evaluate next
Qu. Check if MIC falls below 200 µM for COc1ccccc1-c1cc(-c2ccc(Nc3nc(Nc4ccccc4)nc(Nc4ccccc4)n3)cc2)nc(N)n1 .
Ans. yes (1)

###

- Test system: Bacillus cereus
- Assay protocol: Antimicrobial activity against Bacillus cereus at 1 umol/spot after 18 hrs by TLC-bioautographic method
- Format: functional
Calls of active or inactive are those of the source. No cut-off for these calls is given here.
Metric: inhibition zone (IZ)

Compound | Metric | Measured
COc1ccccc1/C=C/C(=O)c1ccc(Nc2nc(Nc3ccccc3)nc(Nc3ccccc3)n2)cc1 | inhibition zone (IZ) | 0.06 millimeter
CC1(C)S[C@@H]2[C@H](NC(=O)[C@H](N)c3ccccc3)C(=O)N2[C@H]1C(=O)O | inhibition zone (IZ) | inactive
Nc1nc(-c2ccc(Nc3nc(Nc4ccccc4)nc(Nc4ccccc4)n3)cc2)cc(-c2cccs2)n1 | inhibition zone (IZ) | 0.09 millimeter
O=C(/C=C/c1cccs1)c1ccc(Nc2nc(Nc3ccccc3)nc(Nc3ccccc3)n2)cc1 | inhibition zone (IZ) | inactive
O=C(/C=C/c1ccco1)c1ccc(Nc2nc(Nc3ccccc3)nc(Nc3ccccc3)n2)cc1 | inhibition zone (IZ) | 0.07 millimeter
COc1ccccc1-c1cc(-c2ccc(Nc3nc(Nc4ccccc4)nc(Nc4ccccc4)n3)cc2)nc(N)c1C#N | inhibition zone (IZ) | inactive
CC(=O)N1N=C(c2ccc(Nc3nc(Nc4ccccc4)nc(Nc4ccccc4)n3)cc2)CC1c1cccs1 (stereo not drawn) | inhibition zone (IZ) | 0.08 millimeter

With those in mind, consider the next compound.
Qu. So what's the measured inhibition zone (IZ) for this one? CC(=O)N1N=C(c2ccc(Nc3nc(Nc4ccccc4)nc(Nc4ccccc4)n3)cc2)CC1c1ccco1 (stereo not drawn)
Ans. inactive

###

Listing of entries alongside the reported MIC.
- Tested on: Micrococcus flavus
- Assay protocol: Antimicrobial activity against Micrococcus flavus after 24 hrs by microdilution technique
- Format: functional
Give a bare numeral; the unit µM is implied.

Compound | Study target | Measured
Nc1nc(-c2ccc(Nc3nc(Nc4ccccc4)nc(Nc4ccccc4)n3)cc2)cc(-c2cccs2)n1 | Micrococcus flavus | 189
N#Cc1c(-c2cccs2)cc(-c2ccc(Nc3nc(Nc4ccccc4)nc(Nc4ccccc4)n3)cc2)nc1N | Micrococcus flavus | 45
O=C(/C=C/c1ccc(Cl)cc1)c1ccc(Nc2nc(Nc3ccccc3)nc(Nc3ccccc3)n2)cc1 | Micrococcus flavus | 193
Nc1nc(-c2ccc(Nc3nc(Nc4ccccc4)nc(Nc4ccccc4)n3)cc2)cc(-c2ccco2)n1 | Micrococcus flavus | 195
O=C(/C=C/c1cccs1)c1ccc(Nc2nc(Nc3ccccc3)nc(Nc3ccccc3)n2)cc1 | Micrococcus flavus | 204
COc1ccccc1/C=C/C(=O)c1ccc(Nc2nc(Nc3ccccc3)nc(Nc3ccccc3)n2)cc1 | Micrococcus flavus | 268
CC(=O)N1N=C(c2ccc(Nc3nc(Nc4ccccc4)nc(Nc4ccccc4)n3)cc2)CC1c1ccc(Cl)cc1 (configuration not stated) | Micrococcus flavus | 696
Nc1nc(-c2ccc(Cl)cc2)cc(-c2ccc(Nc3nc(Nc4ccccc4)nc(Nc4ccccc4)n3)cc2)n1 | Micrococcus flavus | 179

Qu. So what's the measured MIC for this one? N#Cc1c(-c2ccco2)cc(-c2ccc(Nc3nc(Nc4ccccc4)nc(Nc4ccccc4)n3)cc2)nc1N
Ans. 93

Qu. So what's the measured MIC for this one? N#Cc1c(-c2ccc(Cl)cc2)cc(-c2ccc(Nc3nc(Nc4ccccc4)nc(Nc4ccccc4)n3)cc2)nc1N
Ans. 172

Qu. So what's the measured MIC for this one? CC1(C)S[C@@H]2[C@H](NC(=O)[C@H](N)c3ccccc3)C(=O)N2[C@H]1C(=O)O [AMPICILLIN]
Ans. 248

Where these numbers come from: ChEMBL document CHEMBL1154716
